Tested on: biotinyl-Trp-oxazolone
Assay: self-aminoacylation, catalytic enhancement (BWO) (fold over background); higher = more active; k-Seq, kA / k0A0; sequences stand for … in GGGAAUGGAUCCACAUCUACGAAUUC…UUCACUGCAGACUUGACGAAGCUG
Fewer inactive variants are shown than the library holds.
Binary call on self-aminoacylation: condition met from 6 upward, condition not met beneath that.

Example entries and their recorded answers appear below.
{"MONOMER_SEQUENCE": "CCACACUUCAAGCAAGCAGUC [Fam1B.1 aminoacylation ribozyme variant]", "LABEL": "condition not met"}
{"MONOMER_SEQUENCE": "CUACUUGAAACAAUCGGCCUG [Fam1A.1 aminoacylation ribozyme variant]", "LABEL": "condition not met"}
{"MONOMER_SEQUENCE": "AAGUUUGCGAAUAGUCGCAAA [Fam3.1 aminoacylation ribozyme variant]", "LABEL": "condition not met"}
{"MONOMER_SEQUENCE": "AAGUUUGCUAAAAGUCGCGAG [Fam3.1 aminoacylation ribozyme variant]", "LABEL": "condition not met"}
{"MONOMER_SEQUENCE": "AUUCACCUAUGUCACCGGGUG [Fam2.2 aminoacylation ribozyme variant]", "LABEL": "condition not met"}

[in] Is self-aminoacylation at least 6? Consider AAGUUUGCUAAUAGGCUCAAG [Fam3.1 aminoacylation ribozyme variant]
[out] condition not met

[in] Is self-aminoacylation at least 6? Consider AUUACCAUGGUUAUCGAGUGA [Fam2.1 aminoacylation ribozyme variant]
[out] condition met
